biological target: Adenosine receptor A2a (Rattus norvegicus)
Sequence (P30543 whole entry): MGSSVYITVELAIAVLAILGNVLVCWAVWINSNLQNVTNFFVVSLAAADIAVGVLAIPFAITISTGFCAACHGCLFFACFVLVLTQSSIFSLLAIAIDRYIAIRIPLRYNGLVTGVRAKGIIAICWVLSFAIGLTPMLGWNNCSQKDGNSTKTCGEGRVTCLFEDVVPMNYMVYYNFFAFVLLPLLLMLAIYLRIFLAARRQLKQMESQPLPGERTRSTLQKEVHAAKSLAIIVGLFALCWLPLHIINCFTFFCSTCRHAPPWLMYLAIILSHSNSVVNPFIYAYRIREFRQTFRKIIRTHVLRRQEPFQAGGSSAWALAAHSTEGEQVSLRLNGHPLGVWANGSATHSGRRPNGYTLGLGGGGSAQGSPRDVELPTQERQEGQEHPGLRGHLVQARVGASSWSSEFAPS
log10 of Ki values by entry
reported metric: log10 of Ki (log10 of the value in µM)

smiles	measured on	log10 of Ki
CCCCn1c(=O)c2nc(CCC(=O)O)[nH]c2n(CCCC)c1=O	Adenosine receptor A2a (Rattus norvegicus)	1.86
CCCCn1c(=O)c2c(nc(/C=C/C(=O)OC)n2C)n(CCCC)c1=O	Adenosine receptor A2a (Rattus norvegicus)	0.77
CCCCn1c(=O)c2nc(CCCC(=O)O)[nH]c2n(CCCC)c1=O	Adenosine receptor A2a (Rattus norvegicus)	2.05
CCCn1c(=O)c2nc(-c3ccc(OCC(=O)NCC(=O)O)cc3)[nH]c2n(CCC)c1=O	Adenosine receptor A2a (Rattus norvegicus)	-0.34
Cn1c(=O)c2nc(CCCC(=O)O)[nH]c2n(C)c1=S	Adenosine receptor A2a (Rattus norvegicus)	1.83
CCCn1c(=O)c2nc(-c3ccc(OCC(=O)O)cc3)[nH]c2n(Cc2ccc(N)c(I)c2)c1=O	Adenosine receptor A2a (Rattus norvegicus)	-0.15
CCCn1c(=O)c2nc(-c3ccc(OCC(=O)NCCNC(=O)CCC(=O)O)cc3)[nH]c2n(CCC)c1=O	Adenosine receptor A2a (Rattus norvegicus)	-0.60
CCCCn1c(=O)c2c(nc(/C=C/C(=O)O)n2C)n(CCCC)c1=O	Adenosine receptor A2a (Rattus norvegicus)	1.37
CCCn1c(=O)c2nc(-c3ccc(C(=O)O)cc3)[nH]c2n(CCC)c1=O	Adenosine receptor A2a (Rattus norvegicus)	-0.20
Cn1c(=O)c2c(ncn2Cc2ccccc2)n(C)c1=O	Adenosine receptor A2a (Rattus norvegicus)	1.66

Cited source: ChEMBL document CHEMBL1127794
